ASSAYED TARGET: 3-phosphoinositide-dependent protein kinase 1 (Homo sapiens)
Sequence (O15530 whole entry): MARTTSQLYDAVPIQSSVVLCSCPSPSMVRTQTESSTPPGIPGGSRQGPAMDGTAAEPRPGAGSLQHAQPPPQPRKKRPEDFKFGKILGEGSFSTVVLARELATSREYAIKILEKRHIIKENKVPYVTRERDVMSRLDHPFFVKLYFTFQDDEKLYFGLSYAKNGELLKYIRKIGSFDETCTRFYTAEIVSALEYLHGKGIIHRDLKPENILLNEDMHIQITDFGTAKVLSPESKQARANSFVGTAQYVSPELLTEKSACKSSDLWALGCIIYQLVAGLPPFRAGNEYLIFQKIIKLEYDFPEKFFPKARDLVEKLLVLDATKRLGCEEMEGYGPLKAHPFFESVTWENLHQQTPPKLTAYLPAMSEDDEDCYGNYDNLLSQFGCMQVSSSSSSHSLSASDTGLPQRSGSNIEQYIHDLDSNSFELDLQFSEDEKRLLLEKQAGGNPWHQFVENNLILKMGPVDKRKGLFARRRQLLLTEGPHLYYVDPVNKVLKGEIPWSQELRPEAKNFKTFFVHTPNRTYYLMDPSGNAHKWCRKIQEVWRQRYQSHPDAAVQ
PROCEDURE DETAILS: Inhibition of human His6-tagged PDK1 using biotinylated PDKtide as substrate after 60 mins by topcount method
PROPERTY LABEL: IC50 (µM)

CCc1cc(-c2c[nH]c3ncc(-c4cn[nH]c4)cc23)nc(N)n1 :: 0.013

a = Oc1ccc(-c2n[nH]c3cc(O)ccc23)cc1
b = CCc1cc(-c2c[nH]c3ncc(Br)cc23)nc(N)n1
Lab note: check whether a or b shows the higher recorded IC50. Write down the label attached to your selection.
a
(a: 6.7 µM, b: 0.48 µM)
